Molecular target: T1, CRF2R
T1 sequence (Q13324 whole entry, species assumed, looked up): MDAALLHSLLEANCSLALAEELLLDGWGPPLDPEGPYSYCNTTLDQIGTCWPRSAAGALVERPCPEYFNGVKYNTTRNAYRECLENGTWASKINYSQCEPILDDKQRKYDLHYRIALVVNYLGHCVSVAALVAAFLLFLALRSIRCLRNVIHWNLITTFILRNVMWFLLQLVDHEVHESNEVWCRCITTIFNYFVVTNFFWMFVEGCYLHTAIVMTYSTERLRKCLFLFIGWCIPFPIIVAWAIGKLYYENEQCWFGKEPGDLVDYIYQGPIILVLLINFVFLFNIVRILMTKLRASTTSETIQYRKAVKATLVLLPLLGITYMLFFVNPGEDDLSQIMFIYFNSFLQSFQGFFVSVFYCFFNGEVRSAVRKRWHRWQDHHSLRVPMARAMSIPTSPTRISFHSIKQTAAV
Assay: cell-based or functional assay
Ends that are not written are not given here.
Reported CRF2R EC50 values follow for various binders
Write the number in nM without appending the unit.

Below are worked cases with known answers.
ZGPPISIDLPRYLLRKMIEIEKQEKEKQQAANNRLLLDTI (C-terminal amide) [SEQ ID NO 65] :: 67.9
ZGPPISIDLPLLLLRKMIEIEKQEKEKQQAANNRLLLDTI (C-terminal amide) [SEQ ID NO 188] :: 14.6

Please find the next binder below.
Record summary for DNPSLSIDLPLLLLRTLLELARTQSQRERAEQNAIIFASV-NH2 [SEQ ID NO 174] : reported CRF2R EC50 = 4.42
